B1: BTBD10 (parent)
chain: DRKLHSRPRKLYKHSSTSSRIAKG

- Variants of: B1
- PROCEDURE SUMMARY: protein stability index of a GFP-peptide fusion (GPS, HEK-293T) (PSI 1-6); higher = more stable;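 further: lentivirally expressed fusions sorted by FACS into six bins by GFP to DsRed ratio, PSI derived from sequencing read proportions per bin multiplied by bin number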
- CONDITION PARAMETERS: c terminus: a fixed tail appended
Class Criterion met: protein stability index at least 4. Class Criterion not met: protein stability index below 4.

In [3]: df
Out[3]:
    mutation_name       answer_label
 0           S19W  Criterion not met
 1            R9C  Criterion not met
 2           S16T      Criterion met
 3           G24M  Criterion not met
 4            L4E      Criterion met
 5           T17L      Criterion met
 6            S6E      Criterion met
 7           I21C  Criterion not met
 8           K13Y  Criterion not met
 9           Y12I  Criterion not met
10           Y12S      Criterion met
11            K3T  Criterion not met
12           R20F  Criterion not met
13           S15K  Criterion not met
14            S6W  Criterion not met
